- assayDetails: CEETOX_H295R_PROG: CeeTox H295R High-throughput Steroidogenesis Assay for Progesterone (PROG) (AID 2283442)
- appliedConditions: actives raise or lower the signal
Calls of active or inactive are those of the source. The calls were made as follows: active = hit-call score of the fitted dose curve at least 0.9, where 1 is the maximum; inactive = score below 0.9.
// allowed return values: Yes (active), No (inactive)

Asked: Hi, sorry to bother you, what did the test record for Nc1nc(N)nc(NC2CC2)n1 ?
Given back: No

Asked: Hi, sorry to bother you, what did the test record for CNc1cnn(-c2cccc(C(F)(F)F)c2)c(=O)c1Cl ?
Given back: No

Asked: Hi, sorry to bother you, what did the test record for FC(F)C(F)(F)OCC(Cn1cncn1)c1ccc(Cl)cc1Cl (stereo not given) ?
Given back: No

Asked: Hi, sorry to bother you, what did the test record for C#CC(C)(C)NC(=O)c1cc(Cl)cc(Cl)c1 ?
Given back: Yes

Asked: Hi, sorry to bother you, what did the test record for CCCSP(=O)(OCC)SCCC ?
Given back: No

Asked: Hi, sorry to bother you, what did the test record for C#CCC1=C(C)C(OC(=O)C2C(C=C(C)C)C2(C)C)CC1=O (stereo not given) ?
Given back: No

Asked: Hi, sorry to bother you, what did the test record for CCCSP(=O)(OCC)Oc1ccc(Br)cc1Cl (stereo not given) ?
Given back: No

Asked: Hi, sorry to bother you, what did the test record for CC(C1CC1)C(O)(Cn1cncn1)c1ccc(Cl)cc1 (stereo not given) ?
Given back: Yes

Asked: Hi, sorry to bother you, what did the test record for CN(C)C(=O)Nc1cccc(C(F)(F)F)c1 ?
Given back: No

Asked: Hi, sorry to bother you, what did the test record for COc1cccc(C(=O)NN(C(=O)c2cc(C)cc(C)c2)C(C)(C)C)c1C ?
Given back: No

Asked: Hi, sorry to bother you, what did the test record for COc1ccc(C(=CC(=O)N2CCOCC2)c2ccc(Cl)cc2)cc1OC ?
Given back: No

Asked: Hi, sorry to bother you, what did the test record for CCOP(=S)(OCC)Oc1cc(C)nc(C(C)C)n1 ?
Given back: Yes

Asked: Hi, sorry to bother you, what did the test record for CCOP(=S)(OCC)Oc1ccc([N+](=O)[O-])cc1 ?
Given back: Yes

Asked: Hi, sorry to bother you, what did the test record for CCOC(=O)COc1cc(-c2nn(C)c(OC(F)F)c2Cl)c(F)cc1Cl ?
Given back: No

Asked: Hi, sorry to bother you, what did the test record for CCCCN(CC)c1c([N+](=O)[O-])cc(C(F)(F)F)cc1[N+](=O)[O-] ?
Given back: No

Asked: Hi, sorry to bother you, what did the test record for CSc1nc(NC(C)C)nc(NC(C)C)n1 ?
Given back: No

Asked: Hi, sorry to bother you, what did the test record for O=C(O)c1cc(Oc2ccc(C(F)(F)F)cc2Cl)ccc1[N+](=O)[O-] ?
Given back: No

Asked: Hi, sorry to bother you, what did the test record for CSc1nnc(C(C)(C)C)c(=O)n1N ?
Given back: No

Asked: Hi, sorry to bother you, what did the test record for CNC(=O)ON=C(SC)C(=O)N(C)C ?
Given back: No

Asked: Hi, sorry to bother you, what did the test record for COP(=O)(NC(C)=O)SC (stereo not given) ?
Given back: No

* * *

- assayDetails: IUF_NPC2-5_cell_number_120hr: Cell Number Assessment at 120 hours in the Leibniz Research Institute for Environmental Medicine (IUF) Neural Progenitor Cell Migration and Differentiation Assay (NPC2-5) (AID 2284308);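 also: count of Hoechst-stained nuclei in migration zone around plated human neural progenitor spheres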
Calls of active or inactive are those of the source. How the source made its calls: active means hit-call score of the fitted dose curve at least 0.9, where 1 is the maximum; inactive means score below 0.9.
// allowed return values: active, inactive

Asked: Hi, sorry to bother you, what did the test record for CC(C)N(C(=O)SCC(Cl)=C(Cl)Cl)C(C)C ?
Given back: inactive

Asked: Hi, sorry to bother you, what did the test record for CCOP(=O)(OCC)Oc1cc(C)nc(C(C)C)n1 ?
Given back: inactive

Asked: Hi, sorry to bother you, what did the test record for CC(=NC#N)N(C)Cc1ccc(Cl)nc1 ?
Given back: inactive

Asked: Hi, sorry to bother you, what did the test record for C=C(C)[C@H]1Cc2c(ccc3c2O[C@@H]2COc4cc(OC)c(OC)cc4[C@@H]2C3=O)O1 ?
Given back: active

Asked: Hi, sorry to bother you, what did the test record for CCOP(=S)(OCC)OC(Cl)C(Cl)(Cl)Cl (stereo unspecified) ?
Given back: inactive

Asked: Hi, sorry to bother you, what did the test record for CC1=NNC(=O)N(/N=C/c2cccnc2)C1 ?
Given back: inactive

All values here come from PubChem BioAssay (EPA / NIEHS).
